Test system: RAW macrophages
Test: NO production (Griess assay), LPS/IFNγ-activated RAW264.7 macrophages
Format: cell-based, mouse
Conditions: Mus musculus, Macrophage, 24 h
// values below are reported inhibition at 10 µM
MEASUREMENT NAME: inhibition at 10 µM (%)

COMPOUND STRING	TEST RESULT
C#Cc1ccc2c(c1)C(c1ccccc1F)=N[C@H](C)c1c(-c3nc(CC)no3)ncn1-2	5
CCOC(=O)c1ncn2c1[C@@H](C)N=C(c1ccccn1)c1cc(Br)ccc1-2	4
C#Cc1ccc2c(c1)C(c1ccccc1F)=N[C@H](C)c1c(C(=O)NC(C)C)ncn1-2	6
Cc1noc(-c2ncn3c2[C@@H](C)N=C(c2ccccc2F)c2cc(C4CC4)ccc2-3)n1	13
C[C@@H]1N=C(c2ccccc2F)c2cc(Br)ccc2-n2cnc(-c3cnco3)c21	0
C[C@H]1N=C(c2ccccc2F)c2cc(C3CC3)ccc2-n2cnc(C(=O)N(C)C)c21	2
C#Cc1ccc2c(c1)C(c1ccccc1F)=N[C@H](C)c1c(-c3nc(C)no3)ncn1-2	0
Cc1noc(-c2ncn3c2[C@@H](C)N=C(c2ccccc2F)c2cc(Br)ccc2-3)n1	0

Provenance of the data: patent US20240279232A1
